Listed here: items and their measured IC50.
- Test system: HCT-116
- Assay remarks: Antiproliferative activity against human HCT116 cells by dose-response curve analysis
- Assay type: functional, cell-based
# unit: µg/mL | format: bare number

Ask: Entry under review: `CC(C)(C)c1cc2c(N/N=C\c3cccc(CO)n3)ncnc2s1` . Reported IC50?
Reply: 0.039

Ask: Entry under review: `CN(C)Cc1cccc(/C=N\Nc2ncnc3sc(C(C)(C)C)cc23)n1` . Reported IC50?
Reply: 0.429

Ask: Entry under review: `CC(C)c1cc2c(N/N=C\c3ccccn3)ncnc2s1` . Reported IC50?
Reply: 0.01

Next:
Ask: Entry under review: `CCc1cc2c(N/N=C\C(C)(C)C)ncnc2s1` . Reported IC50?
Reply: 1.66

Ask: Entry under review: `CC(C)(C)c1cc2c(N/N=C\c3cccc(CN4CCOCC4)n3)ncnc2s1` . Reported IC50?
Reply: 0.363

###

- Target or test system: Cyclin-dependent kinase 2 (Homo sapiens)
Parameter: pIC50
pIC50 here is simply -log10 of the concentration when that concentration is written in mol/L.

Here's what some known entries look like.
Ask: Short answer please: pIC50, Cyclin-dependent kinase 2 (Homo sapiens), entry `CC(C)(C)c1cc2c(N/N=C\c3cccnc3)ncnc2s1`
Reply: 5.75

Ask: Short answer please: pIC50, Cyclin-dependent kinase 2 (Homo sapiens), entry `CC(C)(C)c1cc2c(N/N=C\c3ccccn3)ncnc2s1`
Reply: 5.05

Ask: Short answer please: pIC50, Cyclin-dependent kinase 2 (Homo sapiens), entry `CC(C)c1cc2c(N/N=C\c3ccccn3)ncnc2s1`
Reply: 4.98

Ask: Short answer please: pIC50, Cyclin-dependent kinase 2 (Homo sapiens), entry `Cc1cc2c(N/N=C\c3cccs3)ncnc2s1`
Reply: 5.21

From here, focus on the item given below.
Ask: Short answer please: pIC50, Cyclin-dependent kinase 2 (Homo sapiens), entry `CCc1cc2c(N/N=C\c3cccs3)ncnc2s1`
Reply: 5.42
